# Target desc: hFcγRIIIa-158F-streptavidin-His (human, UniProt P08637 17-208)
# Sequence (P08637 17-208): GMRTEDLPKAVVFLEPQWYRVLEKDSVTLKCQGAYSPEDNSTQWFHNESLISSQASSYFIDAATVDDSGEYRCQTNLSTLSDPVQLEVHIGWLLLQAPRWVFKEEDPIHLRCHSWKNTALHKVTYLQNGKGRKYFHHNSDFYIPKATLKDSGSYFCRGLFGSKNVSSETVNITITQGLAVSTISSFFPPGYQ
# Assay remarks: BLI
Value kind: Kd (nM)
Field: numeric (nM). Do not append units.

Use these answered entries as a reference point.
Trastuzumab-MFc6 (antibody) Fc: DKTHTCPPCPAPELPGGPDVFLFPPKPKDTLMISRTPEVTCVVVDVSHEYPEVKFNWYVDGVEVHNAKTKPREEQYNGTYRVVSVLTVLHRDWLNGKEYKCKVSNKALPAPEEKTISKAKGQPREPQVYTLPPSRGELTKNQVSLTCLVKGFYPSDIAVEWESNGQPENNYKTTPPVLDSDGSFFLYSKLTVDKSRWQQGNVFSCSVLHEALHNHYTQKSLSLSPGK : 29.9
Trastuzumab-MFc5 (antibody) Fc: DKTHTCPPCPAPELLGGPDVFLFPPKPMDTLMISRTPEVTCVVVDVSLEDPEVKFNWYVDGVEVHNAKTKPREEQYNSTYRVVSVLTVEHMDWLNGKEYKCKVSNKALPVPEEKTISKAKGQPREPQVYTLPPSRDELTKNQVSLTCLVKGFYPSDIAVEWESNGQPENNYKTTPPVLDSDGSFFLYSKLTVDKSRWQQGNVFSCSVLHEALHNHYTQKSLSLSPGK : 75.6
Trastuzumab-MFc3 (antibody) Fc: DKTHTCPPCPAPELLGGPDVFLFPPKPKDTLMISRTPEVTCVVVDVSLEDPEVKFNWYVDGVEVHNAKTKPREEQYNSTYRVVSVLTVLHRDWLNGKEYKCKVSNKALPVPEEKTISKAKGQPREPQVYTLPPSRDELTKNQVSLTCLVKGFYPSDIAVEWESNGQPENNYKTTPPVLDSDGSFFLYSKLTVDKSRWQQGNVFSCSVLHEALHNHYTQKSLSLSPGK : 38.5

// Kd lookup, binder = Trastuzumab-MFc2 (antibody) Fc: DKTHTCPPCPAPELPGGPSVFLFPPKPKDTLMISRTPEITCVVVDVSHEDPEVKFNWYVDGVEVHNAKTKPREEQYNSTYRVVSVLTVLHRDWLNGKEYKCKVSNKALPAPEEKTISKAKGQPREPQVYTLPPSRDELTKNQVSLTCLVKGFYPSDIVVEWESNGQPENNYKTTPPVLDSDGSFFLYSKLTVDKSRWQQGNVFSCSVLHEALHNHYTQKSLSLSPGK , result: 56.8

Sourced from patent US20240425612A1
